Just for reference, patent US9695194B2 is where these values come from.

Observed IC50 for Trypsin (Bos taurus (Bovine)), reported per entry below.

{"CHEMICAL_STRUCTURE": "CCOc1cc2c(=O)oc(-c3ccccc3OC)nc2cc1OC", "IC50": "> 10 µM"}
{"CHEMICAL_STRUCTURE": "COc1cc2nc(-c3ccccc3I)oc(=O)c2cc1OC", "IC50": "> 10 µM"}
{"CHEMICAL_STRUCTURE": "CS(=O)(=O)c1ccccc1-c1nc2cc3c(cc2c(=O)o1)OCCO3", "IC50": "1.8 µM"}
{"CHEMICAL_STRUCTURE": "COc1cc2nc(-c3ccccc3SC)oc(=O)c2cc1OC", "IC50": "> 10 µM"}
{"CHEMICAL_STRUCTURE": "CSc1ccccc1-c1nc2cc3c(cc2c(=O)o1)OCCCO3", "IC50": "> 10 µM"}

* * *

# EXPERIMENTAL_SYSTEM: Recombinant human KLK7 (Homo sapiens (Human))
# Sequence (P49862 30-253): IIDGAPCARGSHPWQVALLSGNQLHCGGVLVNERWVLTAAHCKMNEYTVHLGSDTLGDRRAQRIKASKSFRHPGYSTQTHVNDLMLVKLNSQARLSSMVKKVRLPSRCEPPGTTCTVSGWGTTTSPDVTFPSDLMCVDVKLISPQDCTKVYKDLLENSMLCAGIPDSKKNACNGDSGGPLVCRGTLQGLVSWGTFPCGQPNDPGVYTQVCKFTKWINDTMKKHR
# TEST_PROTOCOL: KLK7 assay
# CONDITION_PARAMETERS: substrate S-2586, 37° C., pH 7.2
pIC50: −log10 of the molar value.
// reported pIC50 per item

{"COMPOUND": "COC1=CC=C(c2nc3cc4c(cc3c(=O)o2)OCCO4)C(OC)C1 (centres unmarked) [Compound 15]", "pIC50": 6.98}
{"COMPOUND": "CCOc1cc2c(=O)oc(-c3ccccc3SC)nc2cc1OC [Compound 1]", "pIC50": 7.32}
{"COMPOUND": "CCOc1cc2c(=O)oc(-c3ccc(OC)cc3OC)nc2cc1OC [Compound 3]", "pIC50": 6.94}
{"COMPOUND": "CCOc1cc2c(=O)oc(-c3ccccc3Cl)nc2cc1OC [Compound 2]", "pIC50": 7.14}
{"COMPOUND": "COc1cc2nc(-c3ccccc3SC)oc(=O)c2cc1OC [Compound 12]", "pIC50": 6.83}

* * *

Observed IC50 for Chymotrypsin, bovine (Bos taurus (Bovine), UniProt P00766), reported per entry below.

{"CHEMICAL_STRUCTURE": "CCOc1cc2c(=O)oc(-c3ccc(OC)cc3OC)nc2cc1OC", "EXPERIMENTAL_SYSTEM": "Chymotrypsin, bovine (Bos taurus (Bovine), UniProt P00766)", "IC50": "> 10000 nM"}
{"CHEMICAL_STRUCTURE": "CS(=O)(=O)c1ccccc1-c1nc2cc3c(cc2c(=O)o1)OCCO3", "EXPERIMENTAL_SYSTEM": "Chymotrypsin, bovine (Bos taurus (Bovine), UniProt P00766)", "IC50": "< 100 nM"}
{"CHEMICAL_STRUCTURE": "CCOc1cc2c(=O)oc(-c3ccccc3OC)nc2cc1OC", "EXPERIMENTAL_SYSTEM": "Chymotrypsin, bovine (Bos taurus (Bovine), UniProt P00766)", "IC50": "> 10000 nM"}
{"CHEMICAL_STRUCTURE": "CS(=O)(=O)c1ccccc1-c1nc2cc3c(cc2c(=O)o1)OCCCO3", "EXPERIMENTAL_SYSTEM": "Chymotrypsin, bovine (Bos taurus (Bovine), UniProt P00766)", "IC50": "200 nM"}
{"CHEMICAL_STRUCTURE": "COc1ccc(-c2nc3cc4c(cc3c(=O)o2)OCCCO4)c(OC)c1", "EXPERIMENTAL_SYSTEM": "Chymotrypsin, bovine (Bos taurus (Bovine), UniProt P00766)", "IC50": "< 100 nM"}
{"CHEMICAL_STRUCTURE": "CCOc1cc2c(=O)oc(-c3ccccc3Cl)nc2cc1OC", "EXPERIMENTAL_SYSTEM": "Chymotrypsin, bovine (Bos taurus (Bovine), UniProt P00766)", "IC50": "> 10000 nM"}
{"CHEMICAL_STRUCTURE": "COc1ccccc1-c1nc2cc3c(cc2c(=O)o1)OCCCO3", "EXPERIMENTAL_SYSTEM": "Chymotrypsin, bovine (Bos taurus (Bovine), UniProt P00766)", "IC50": "< 100 nM"}
{"CHEMICAL_STRUCTURE": "O=c1oc(-c2ccccc2Cl)nc2cc3c(cc12)OCCCO3", "EXPERIMENTAL_SYSTEM": "Chymotrypsin, bovine (Bos taurus (Bovine), UniProt P00766)", "IC50": "< 100 nM"}
{"CHEMICAL_STRUCTURE": "COc1cc2nc(-c3ccccc3I)oc(=O)c2cc1OC", "EXPERIMENTAL_SYSTEM": "Chymotrypsin, bovine (Bos taurus (Bovine), UniProt P00766)", "IC50": "> 10000 nM"}

* * *

Observed pIC50 for Cathepsin G (Homo sapiens (Human), UniProt P08311), reported per entry below.
pIC50: −log10 of the molar value.

{"MOLECULE": "CCOc1cc2c(=O)oc(-c3ccccc3SC)nc2cc1OC [Compound 1]", "OPERATOR_SYMBOL": "<", "pIC50": 5.00}
{"MOLECULE": "CCOc1cc2c(=O)oc(-c3ccccc3OC)nc2cc1OC [Compound 5]", "OPERATOR_SYMBOL": "=", "pIC50": 5.92}
{"MOLECULE": "CCOc1cc2c(=O)oc(-c3ccccc3S(C)(=O)=O)nc2cc1OC [Compound 4]", "OPERATOR_SYMBOL": "=", "pIC50": 5.55}
{"MOLECULE": "COc1ccc(-c2nc3cc(OC)c(OC)cc3c(=O)o2)c(OC)c1 [Compound 17]", "OPERATOR_SYMBOL": "=", "pIC50": 7.00}
{"MOLECULE": "CSc1ccccc1-c1nc2cc3c(cc2c(=O)o1)OCCCO3 [Compound 9]", "OPERATOR_SYMBOL": "=", "pIC50": 5.89}
{"MOLECULE": "CCOc1cc2c(=O)oc(-c3ccccc3Cl)nc2cc1OC [Compound 2]", "OPERATOR_SYMBOL": "<", "pIC50": 5.00}
{"MOLECULE": "COc1cc2nc(-c3ccccc3I)oc(=O)c2cc1OC [Compound 18]", "OPERATOR_SYMBOL": "=", "pIC50": 5.72}
{"MOLECULE": "O=c1oc(-c2ccccc2Cl)nc2cc3c(cc12)OCCCO3 [Compound 7]", "OPERATOR_SYMBOL": "=", "pIC50": 5.72}
{"MOLECULE": "CCOc1cc2c(=O)oc(-c3ccc(OC)cc3OC)nc2cc1OC [Compound 3]", "OPERATOR_SYMBOL": "=", "pIC50": 5.96}
{"MOLECULE": "CC(C)c1ccc(-c2nc3cc4c(cc3c(=O)o2)OCCCO4)c(C(C)C)c1 [Compound 11]", "OPERATOR_SYMBOL": "<", "pIC50": 5.00}

* * *

# EXPERIMENTAL_SYSTEM: Chymotrypsin, bovine (Bos taurus (Bovine), UniProt P00766)
# TEST_PROTOCOL: Chymotrypsin assay
# Type: biochemical
# CONDITION_PARAMETERS: substrate S-2586, 37° C., pH 7.2
# Method: Materials: Chymotrypsin, bovine, 25 μg (Roche, sequence grade), Substrate S-2586 (Chromogenics, cat. no. 82 08 94)

{"MOLECULE": "O=c1oc(-c2ccccc2Cl)nc2cc3c(cc12)OCCO3 [Compound 16]", "IC50": "< 100 nM"}
{"MOLECULE": "CCOc1cc2c(=O)oc(-c3ccccc3SC)nc2cc1OC [Compound 1]", "IC50": "> 10000 nM"}
{"MOLECULE": "COc1ccc(-c2nc3cc(OC)c(OC)cc3c(=O)o2)c(OC)c1 [Compound 17]", "IC50": "1200 nM"}
{"MOLECULE": "COc1ccccc1-c1nc2cc3c(cc2c(=O)o1)OCCO3 [Compound 13]", "IC50": "< 100 nM"}

* * *

# EXPERIMENTAL_SYSTEM: UniProt:P00760
pIC50: −log10 of the molar value.

{"COMPOUND": "COc1ccc(-c2nc3cc4c(cc3c(=O)o2)OCCCO4)c(OC)c1 [Compound 8]", "pIC50": "< 5.00"}
{"COMPOUND": "O=c1oc(-c2ccccc2Cl)nc2cc3c(cc12)OCCO3 [Compound 16]", "pIC50": 5.43}
{"COMPOUND": "COc1ccccc1-c1nc2cc3c(cc2c(=O)o1)OCCCO3 [Compound 6]", "pIC50": "< 5.00"}
{"COMPOUND": "COc1ccc(-c2nc3cc(OC)c(OC)cc3c(=O)o2)c(OC)c1 [Compound 17]", "pIC50": "< 5.00"}
{"COMPOUND": "CS(=O)(=O)c1ccccc1-c1nc2cc3c(cc2c(=O)o1)OCCCO3 [Compound 10]", "pIC50": "< 5.00"}
{"COMPOUND": "COc1ccccc1-c1nc2cc3c(cc2c(=O)o1)OCCO3 [Compound 13]", "pIC50": 5.74}
{"COMPOUND": "CCOc1cc2c(=O)oc(-c3ccccc3Cl)nc2cc1OC [Compound 2]", "pIC50": "< 5.00"}
{"COMPOUND": "CCOc1cc2c(=O)oc(-c3ccccc3SC)nc2cc1OC [Compound 1]", "pIC50": "< 5.00"}
{"COMPOUND": "CCOc1cc2c(=O)oc(-c3ccc(OC)cc3OC)nc2cc1OC [Compound 3]", "pIC50": "< 5.00"}
{"COMPOUND": "O=c1oc(-c2ccccc2Cl)nc2cc3c(cc12)OCCCO3 [Compound 7]", "pIC50": "< 5.00"}
